- MEASUREMENT_TARGET: human mGlu5 (Homo sapiens)
- Construct: expressed in transfected cells
- Sequence (P41594 21-1212): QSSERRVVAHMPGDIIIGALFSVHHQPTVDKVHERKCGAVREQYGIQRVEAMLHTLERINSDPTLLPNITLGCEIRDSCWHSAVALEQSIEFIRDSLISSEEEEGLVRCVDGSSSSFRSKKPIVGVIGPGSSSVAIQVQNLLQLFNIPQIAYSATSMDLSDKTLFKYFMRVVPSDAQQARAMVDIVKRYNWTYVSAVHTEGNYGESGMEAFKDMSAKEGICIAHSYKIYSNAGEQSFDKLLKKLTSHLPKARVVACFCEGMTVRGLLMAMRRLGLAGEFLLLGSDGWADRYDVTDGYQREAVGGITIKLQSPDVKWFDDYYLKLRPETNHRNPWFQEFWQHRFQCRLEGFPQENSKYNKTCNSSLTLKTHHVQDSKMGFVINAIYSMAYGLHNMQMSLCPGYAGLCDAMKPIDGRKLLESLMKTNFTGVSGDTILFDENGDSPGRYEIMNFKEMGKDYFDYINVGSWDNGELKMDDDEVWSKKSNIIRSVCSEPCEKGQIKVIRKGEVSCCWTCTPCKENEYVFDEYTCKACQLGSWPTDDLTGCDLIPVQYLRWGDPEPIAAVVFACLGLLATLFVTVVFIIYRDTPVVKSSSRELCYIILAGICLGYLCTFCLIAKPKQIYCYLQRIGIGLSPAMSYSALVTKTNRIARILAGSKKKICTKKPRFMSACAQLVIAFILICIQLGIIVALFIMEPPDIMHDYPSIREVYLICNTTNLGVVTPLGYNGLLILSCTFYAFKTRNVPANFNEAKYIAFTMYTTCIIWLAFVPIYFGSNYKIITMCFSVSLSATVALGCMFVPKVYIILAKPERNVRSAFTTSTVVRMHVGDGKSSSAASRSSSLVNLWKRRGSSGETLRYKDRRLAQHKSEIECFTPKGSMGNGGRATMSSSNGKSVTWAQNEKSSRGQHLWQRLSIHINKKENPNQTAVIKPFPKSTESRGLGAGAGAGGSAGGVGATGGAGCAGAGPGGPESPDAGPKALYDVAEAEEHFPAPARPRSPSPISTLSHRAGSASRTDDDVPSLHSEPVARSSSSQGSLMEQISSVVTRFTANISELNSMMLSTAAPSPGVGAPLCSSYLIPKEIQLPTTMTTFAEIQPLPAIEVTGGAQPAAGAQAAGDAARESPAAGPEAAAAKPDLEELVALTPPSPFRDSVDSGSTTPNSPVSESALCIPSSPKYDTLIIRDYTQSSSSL
- PROCEDURE_SUMMARY: Calcium mobilization assay in human mGlu5-HEK293A cells (NAM, EC80 glutamate)
- Format: cell-based
- CONDITION_LABEL: efficacy of the NAM to reduce an EC80 response of glutamate; human mGlu5-HEK293A cells
RECORDED_ENDPOINT: %Glumin (%)
Give the quantity in %, number only.

The cases that follow already have their %Glumin on record.
| COMPOUND | MEASUREMENT_TARGET | RECORDED_ENDPOINT | RESULT |
| --- | --- | --- | --- |
| O=C(Nc1ccc(F)cn1)c1cc(O[C@@H]2CCOC2)c2ccccc2n1 [19fB] | human mGlu5 (Homo sapiens) | %Glumin | 15 |
| Cn1ccc2nc(C(=O)Nc3ccc(F)cn3)cc(O[C@@H]3CCOC3)c21 [19eB] | human mGlu5 (Homo sapiens) | %Glumin | 46 |
| O=C(Nc1cccc(F)n1)c1cc(O[C@@H]2CCOC2)c2sccc2n1 [19aC] | human mGlu5 (Homo sapiens) | %Glumin | 6 |
| Cc1csc(NC(=O)c2cc(O[C@@H]3CCOC3)c3ccn(C)c3n2)n1 [19dA] | human mGlu5 (Homo sapiens) | %Glumin | 2 |

Consider the additional compound presented here.
// query Fetch value of %Glumin on human mGlu5 (Homo sapiens) for Cc1csc(NC(=O)c2cc(O[C@@H]3CCOC3)c3ccccc3n2)n1 [19fA] .
// result 6
